target: PI3K delta (Homo sapiens, UniProt O00329); construct: purchased Millipore, Billerica, MA, USA; assay: Luciferase-based luminescence assay (KinaseGlo), PI3K delta enzymatic activity; format: biochemical; settings: ratio of enzymatic IC50 values, Table 1
Sequence (O00329 whole entry, species assumed): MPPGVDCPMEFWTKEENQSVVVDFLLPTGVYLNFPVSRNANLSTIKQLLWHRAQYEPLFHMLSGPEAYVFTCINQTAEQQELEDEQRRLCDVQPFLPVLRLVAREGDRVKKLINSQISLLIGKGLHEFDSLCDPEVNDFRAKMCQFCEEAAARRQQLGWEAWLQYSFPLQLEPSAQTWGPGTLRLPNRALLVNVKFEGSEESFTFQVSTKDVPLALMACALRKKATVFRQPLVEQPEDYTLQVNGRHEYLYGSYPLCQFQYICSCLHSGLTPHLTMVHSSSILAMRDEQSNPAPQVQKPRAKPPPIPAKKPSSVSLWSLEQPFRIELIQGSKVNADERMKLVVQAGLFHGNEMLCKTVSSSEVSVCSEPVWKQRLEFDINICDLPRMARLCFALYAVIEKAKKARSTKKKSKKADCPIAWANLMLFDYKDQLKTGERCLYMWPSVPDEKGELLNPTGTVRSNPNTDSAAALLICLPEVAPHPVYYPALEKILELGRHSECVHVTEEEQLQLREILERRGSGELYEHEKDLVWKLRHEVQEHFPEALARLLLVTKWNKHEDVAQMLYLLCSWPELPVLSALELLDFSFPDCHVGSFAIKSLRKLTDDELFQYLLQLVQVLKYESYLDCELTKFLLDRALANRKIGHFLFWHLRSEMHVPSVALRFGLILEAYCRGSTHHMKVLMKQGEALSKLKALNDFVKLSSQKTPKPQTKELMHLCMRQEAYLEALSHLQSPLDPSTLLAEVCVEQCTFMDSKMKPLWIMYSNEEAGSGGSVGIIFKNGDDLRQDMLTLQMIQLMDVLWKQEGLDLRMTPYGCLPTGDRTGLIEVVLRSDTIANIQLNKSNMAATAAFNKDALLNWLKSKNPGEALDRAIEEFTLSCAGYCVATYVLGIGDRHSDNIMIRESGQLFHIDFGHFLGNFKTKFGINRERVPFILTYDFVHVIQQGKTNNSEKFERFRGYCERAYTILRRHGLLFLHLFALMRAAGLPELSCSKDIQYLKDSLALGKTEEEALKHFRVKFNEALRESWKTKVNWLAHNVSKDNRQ
Sequence (P27986 whole entry partner, species assumed): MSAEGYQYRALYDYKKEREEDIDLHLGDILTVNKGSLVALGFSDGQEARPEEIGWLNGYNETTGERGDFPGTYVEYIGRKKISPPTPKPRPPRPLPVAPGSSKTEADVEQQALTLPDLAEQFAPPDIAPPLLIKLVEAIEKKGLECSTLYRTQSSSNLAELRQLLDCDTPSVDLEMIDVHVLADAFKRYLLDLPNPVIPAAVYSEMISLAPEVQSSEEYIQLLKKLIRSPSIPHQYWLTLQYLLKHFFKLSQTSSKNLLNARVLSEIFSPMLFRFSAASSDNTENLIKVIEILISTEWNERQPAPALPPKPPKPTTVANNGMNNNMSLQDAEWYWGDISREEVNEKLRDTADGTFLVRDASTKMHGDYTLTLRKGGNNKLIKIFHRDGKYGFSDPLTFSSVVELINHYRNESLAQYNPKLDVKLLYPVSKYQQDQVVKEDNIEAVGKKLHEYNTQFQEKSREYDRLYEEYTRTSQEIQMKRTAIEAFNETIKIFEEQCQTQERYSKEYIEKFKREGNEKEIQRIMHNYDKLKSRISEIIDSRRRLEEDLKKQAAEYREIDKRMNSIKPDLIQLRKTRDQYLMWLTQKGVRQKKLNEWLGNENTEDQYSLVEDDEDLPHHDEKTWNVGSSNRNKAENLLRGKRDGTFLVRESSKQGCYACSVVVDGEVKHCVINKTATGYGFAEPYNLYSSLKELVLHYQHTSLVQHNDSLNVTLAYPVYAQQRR
Readout: γ/δ ratio

INSERT INTO assay_data (structure_as_smiles, meas_value) VALUES
  ('CC(C)N1CCC(c2ccccc2CC(C)(C)Nc2nc(N3CCOCC3)nc(-n3c(C(F)F)nc4ccccc43)n2)CC1', 'A’'),
  ('COc1cccc(CC(C)(C)Nc2nc(N3CCOCC3)nc(-n3c(C(F)F)nc4ccccc43)n2)c1', 'A’'),
  ('CC(C)(Cc1ccc(F)cc1)Nc1nc(N2CCOCC2)nc(-n2c(C(F)F)nc3ccccc32)n1', 'A’'),
  ('COc1cccc(-c2ccccc2CC(C)(C)Nc2nc(N3CCOCC3)nc(-n3c(C(F)F)nc4ccccc43)n2)c1', 'A’'),
  ('Cc1cccc(CC(C)(C)Nc2nc(N3CCOCC3)nc(-n3c(C(F)F)nc4ccccc43)n2)c1', 'C’'),
  ('CC[C@H](Nc1nc(N2CCOCC2)nc(-n2c(C(F)F)nc3ccccc32)n1)c1ccccc1', 'D’'),
  ('COc1ccc(-c2ccccc2CC(C)(C)Nc2nc(N3CCOCC3)nc(-n3c(C(F)F)nc4ccccc43)n2)cc1', 'A’'),
  ('Cc1ccccc1-c1ccccc1CC(C)(C)Nc1nc(N2CCOCC2)nc(-n2c(C(F)F)nc3ccccc32)n1', 'A’'),
  ('CC(C)(Cc1ccccc1C1CCN(S(C)(=O)=O)CC1)Nc1nc(N2CCOCC2)nc(-n2c(C(F)F)nc3ccccc32)n1', 'B’');

* * *

Readings of pIC50 for the listed molecules
target: PI3K beta (Homo sapiens, UniProt P42338); construct: purchased Millipore, Billerica, MA, USA; assay: Luciferase-based luminescence assay (ADP Glo), PI3K beta enzymatic activity; assay type: biochemical; settings: inhibition of enzymatic activity, ADP Glo, 25 μM ATP; read-out: IC50 p110β
Sequence (P42338 whole entry, species assumed): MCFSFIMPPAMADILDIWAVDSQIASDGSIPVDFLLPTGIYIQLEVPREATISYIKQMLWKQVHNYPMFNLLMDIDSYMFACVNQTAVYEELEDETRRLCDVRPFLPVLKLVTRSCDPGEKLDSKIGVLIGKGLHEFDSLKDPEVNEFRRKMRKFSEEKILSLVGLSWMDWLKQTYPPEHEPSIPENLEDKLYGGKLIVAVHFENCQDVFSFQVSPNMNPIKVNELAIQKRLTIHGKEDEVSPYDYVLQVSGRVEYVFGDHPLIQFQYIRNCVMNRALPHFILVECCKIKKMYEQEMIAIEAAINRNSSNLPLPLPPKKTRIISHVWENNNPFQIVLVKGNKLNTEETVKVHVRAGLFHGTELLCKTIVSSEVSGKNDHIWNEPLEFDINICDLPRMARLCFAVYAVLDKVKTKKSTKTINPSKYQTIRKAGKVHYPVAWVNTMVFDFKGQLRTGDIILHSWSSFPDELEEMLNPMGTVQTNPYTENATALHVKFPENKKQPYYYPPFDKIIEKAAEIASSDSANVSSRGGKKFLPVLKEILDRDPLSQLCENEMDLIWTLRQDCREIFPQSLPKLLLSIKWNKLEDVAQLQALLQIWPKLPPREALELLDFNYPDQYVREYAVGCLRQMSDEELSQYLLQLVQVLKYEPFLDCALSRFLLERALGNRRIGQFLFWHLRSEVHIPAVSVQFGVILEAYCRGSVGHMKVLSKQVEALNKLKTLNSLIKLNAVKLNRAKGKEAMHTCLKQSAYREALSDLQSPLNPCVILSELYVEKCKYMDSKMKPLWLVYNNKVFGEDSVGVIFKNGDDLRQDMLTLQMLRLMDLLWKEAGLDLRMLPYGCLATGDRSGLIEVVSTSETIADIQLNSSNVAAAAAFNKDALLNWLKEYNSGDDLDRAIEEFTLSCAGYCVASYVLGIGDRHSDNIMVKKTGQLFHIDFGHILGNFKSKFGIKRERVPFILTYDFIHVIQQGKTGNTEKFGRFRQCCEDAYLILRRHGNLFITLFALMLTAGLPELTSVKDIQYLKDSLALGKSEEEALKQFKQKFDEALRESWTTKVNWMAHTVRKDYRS
Sequence (P27986 whole entry partner, species assumed): as the sequence (P27986 whole entry partner, species assumed) above
pIC50: −log10 of the molar value.
Readout: pIC50

INSERT INTO assay_data (molecule, target_desc, meas_value) VALUES
  ('CC(C)(Cc1ccc2ccccc2c1)Nc1nc(N2CCOCC2)nc(-n2c(C(F)F)nc3ccccc32)n1 [Compound A26]', 'PI3K beta (Homo sapiens, UniProt P42338)', '≥ 7.00'),
  ('CC(C)(Cc1cccc(F)c1)Nc1nc(N2CCOCC2)nc(-n2c(C(F)F)nc3ccccc32)n1 [Compound A39]', 'PI3K beta (Homo sapiens, UniProt P42338)', '≥ 7.00'),
  ('CC(C)(Cc1ccc(F)cc1)Nc1nc(N2CCOCC2)nc(-n2c(C(F)F)nc3ccccc32)n1 [Compound A22]', 'PI3K beta (Homo sapiens, UniProt P42338)', '6.70 to 7.00'),
  ('CC(C)(Cc1ccccc1-c1ccccc1F)Nc1nc(N2CCOCC2)nc(-n2c(C(F)F)nc3ccccc32)n1 [Compound A59]', 'PI3K beta (Homo sapiens, UniProt P42338)', '6.30 to 6.70'),
  ('CC(C)(Cc1ccccc1C1CCNC1)Nc1nc(N2CCOCC2)nc(-n2c(C(F)F)nc3ccccc32)n1 (stereo not drawn) [Compound A74]', 'PI3K beta (Homo sapiens, UniProt P42338)', '< 6.30'),
  ('Cn1cc(-c2ccccc2CC(C)(C)Nc2nc(N3CCOCC3)nc(-n3c(C(F)F)nc4ccccc43)n2)cn1 [Compound A45]', 'PI3K beta (Homo sapiens, UniProt P42338)', '≥ 7.00');

* * *

molecular target: PI3Kδ (Homo sapiens); construct: endogenous in cells; host or cells: Raji (ATCC #CCL-86); assay: ELISA assay for PI3Kδ: sandwich ELISA, phosphorylation of AKT (Thr308) in Raji cells; format: cell-based; conditions: ratio of cellular IC50 values, Table 2
Sequence (O00329 whole entry): as the sequence (O00329 whole entry, species assumed) above
Sequence (P27986 whole entry partner): as the sequence (P27986 whole entry partner, species assumed) above
Readout: β/δ ratio

INSERT INTO results (compound, meas_value) VALUES
  ('CC(=O)N1CCC(c2ccccc2CC(C)(C)Nc2nc(N3CCOCC3)nc(-n3c(C(F)F)nc4ccccc43)n2)CC1 [Compound A72]', 'A’'),
  ('CC(C)(Cc1ccccc1-c1cccnc1)Nc1nc(N2CCOCC2)nc(-n2c(C(F)F)nc3ccccc32)n1 [Compound A40]', 'A’'),
  ('CC(C)(Cc1ccc(F)cc1)Nc1nc(N2CCOCC2)nc(-n2c(C(F)F)nc3ccccc32)n1 [Compound A22]', 'A’'),
  ('CN(C)CCCc1ccccc1CC(C)(C)Nc1nc(N2CCOCC2)nc(-n2c(C(F)F)nc3ccccc32)n1 [Compound A76]', 'A’'),
  ('CC(C)(Cc1ccc(F)cc1F)Nc1nc(N2CCOCC2)nc(-n2c(C(F)F)nc3ccccc32)n1 [Compound A51]', 'D’'),
  ('Cc1ccccc1CC(C)(C)Nc1nc(N2CCOCC2)nc(-n2c(C(F)F)nc3ccccc32)n1 [Compound A18]', 'A’');

* * *

molecular target: PI3K gamma (Homo sapiens); construct: purchased Invitrogen Corp., Carlsbad, CA, USA; experiment: Luciferase-based luminescence assay (ADP Glo), PI3K gamma enzymatic activity; assay type: biochemical; conditions: inhibition of enzymatic activity, 25 μM ATP, read-out: IC50 p110γ
Sequence (P48736 whole entry, species assumed): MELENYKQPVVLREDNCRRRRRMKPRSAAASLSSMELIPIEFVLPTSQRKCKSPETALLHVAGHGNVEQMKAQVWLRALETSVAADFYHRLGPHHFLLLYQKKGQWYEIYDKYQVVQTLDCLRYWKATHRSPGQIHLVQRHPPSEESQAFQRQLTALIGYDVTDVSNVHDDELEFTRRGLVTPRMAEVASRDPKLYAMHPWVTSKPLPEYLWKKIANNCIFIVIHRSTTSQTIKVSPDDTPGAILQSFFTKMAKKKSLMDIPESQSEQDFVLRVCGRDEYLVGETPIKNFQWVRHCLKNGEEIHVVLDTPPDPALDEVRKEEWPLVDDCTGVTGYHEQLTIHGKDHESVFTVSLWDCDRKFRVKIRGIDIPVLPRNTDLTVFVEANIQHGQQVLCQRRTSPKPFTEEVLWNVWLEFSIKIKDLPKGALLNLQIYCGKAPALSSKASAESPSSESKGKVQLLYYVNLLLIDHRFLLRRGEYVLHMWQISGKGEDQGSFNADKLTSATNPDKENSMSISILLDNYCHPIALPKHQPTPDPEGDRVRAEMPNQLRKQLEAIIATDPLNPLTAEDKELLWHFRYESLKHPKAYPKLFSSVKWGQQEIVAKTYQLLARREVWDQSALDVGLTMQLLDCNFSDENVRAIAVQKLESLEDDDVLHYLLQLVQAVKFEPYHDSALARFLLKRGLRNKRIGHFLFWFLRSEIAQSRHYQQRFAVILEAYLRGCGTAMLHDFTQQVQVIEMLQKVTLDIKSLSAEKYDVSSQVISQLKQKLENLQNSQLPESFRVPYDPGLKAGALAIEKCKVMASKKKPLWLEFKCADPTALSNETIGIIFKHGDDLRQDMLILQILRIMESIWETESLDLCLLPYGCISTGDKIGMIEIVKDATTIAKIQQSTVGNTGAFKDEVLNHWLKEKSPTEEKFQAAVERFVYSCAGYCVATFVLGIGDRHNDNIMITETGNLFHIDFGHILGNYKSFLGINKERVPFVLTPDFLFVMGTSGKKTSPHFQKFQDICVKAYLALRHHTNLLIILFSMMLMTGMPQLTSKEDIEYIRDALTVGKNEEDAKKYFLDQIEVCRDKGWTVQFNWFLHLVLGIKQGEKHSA
Readings of IC50 for the listed compounds
Readout: IC50

INSERT INTO assay_data (compound, meas_value) VALUES
  ('CC(C)N1CCC(c2ccccc2CC(C)(C)Nc2nc(N3CCOCC3)nc(-n3c(C(F)F)nc4ccccc43)n2)CC1 [Compound A71]', '> 500 nM'),
  ('CC(C)(Cc1ccccc1Cl)Nc1nc(N2CCOCC2)nc(-n2c(C(F)F)nc3ccccc32)n1 [Compound A16]', '200 to 500 nM'),
  ('CC(C)(Cc1ccccc1-c1ccncc1)Nc1nc(N2CCOCC2)nc(-n2c(C(F)F)nc3ccccc32)n1 [Compound A33]', '200 to 500 nM'),
  ('CC(C)(Cc1ccccc1-c1cccnc1)Nc1nc(N2CCOCC2)nc(-n2c(C(F)F)nc3ccccc32)n1 [Compound A40]', '200 to 500 nM'),
  ('CC(C)(Cc1ccc(Br)cc1)Nc1nc(N2CCOCC2)nc(-n2c(C(F)F)nc3ccccc32)n1 [Compound A24]', '200 to 500 nM'),
  ('CC(C)(Cc1ccccc1)Nc1nc(N2CCOCC2)nc(-n2c(C(F)F)nc3ccccc32)n1 [Compound A14]', '200 to 500 nM'),
  ('CC(C)(Cc1c(F)cccc1F)Nc1nc(N2CCOCC2)nc(-n2c(C(F)F)nc3ccccc32)n1 [Compound A52]', '≤ 100 nM'),
  ('CC(C)(Cc1ccccc1-c1ccccc1)Nc1nc(N2CCOCC2)nc(-n2c(C(F)F)nc3ccccc32)n1 [Compound A47]', '> 500 nM'),
  ('CC(C)(Cc1cccc(Cl)c1)Nc1nc(N2CCOCC2)nc(-n2c(C(F)F)nc3ccccc32)n1 [Compound A20]', '> 500 nM'),
  ('CC(C)(Cc1ccccc1C1CCN(S(C)(=O)=O)CC1)Nc1nc(N2CCOCC2)nc(-n2c(C(F)F)nc3ccccc32)n1 [Compound A73]', '100 to 200 nM'),
  ('Cn1cc(-c2ccccc2CC(C)(C)Nc2nc(N3CCOCC3)nc(-n3c(C(F)F)nc4ccccc43)n2)cn1 [Compound A45]', '200 to 500 nM'),
  ('CC(C)(Cc1ccccc1F)Nc1nc(N2CCOCC2)nc(-n2c(C(F)F)nc3ccccc32)n1 [Compound A15]', '> 500 nM'),
  ('CC(C)(Cc1ccccc1-c1cccc(CN2CCOCC2)c1)Nc1nc(N2CCOCC2)nc(-n2c(C(F)F)nc3ccccc32)n1 [Compound A65]', '100 to 200 nM');
